Target: T1, human OX40 on cells (human, UniProt P43489 29-277)
T1 construct: also called hOX40-293 cells; hOX40-HT1080
T1 sequence: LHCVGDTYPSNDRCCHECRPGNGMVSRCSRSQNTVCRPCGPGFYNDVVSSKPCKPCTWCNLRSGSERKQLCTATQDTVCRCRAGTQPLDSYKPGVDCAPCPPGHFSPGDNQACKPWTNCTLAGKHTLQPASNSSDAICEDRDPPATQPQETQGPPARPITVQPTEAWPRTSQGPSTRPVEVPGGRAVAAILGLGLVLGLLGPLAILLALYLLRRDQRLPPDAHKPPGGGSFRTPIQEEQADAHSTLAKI
Assay: FACS, activated human T cells; mean ± SD, n=3
measurement name: pEC50
Worth noting: pEC50 values are minus log10 of concentrations stated in mol/L.

Query :: Can you share its pEC50? I mean this binder: 23H3 (antibody, V domains shown, also called 23H3.C6) VH: EVQLVQSGGGLVHPGGSLRLSCAGSGFTFSNYAMYWVRQAPGKGLEWVSAIGIGGDTFYTDSVKGRFTISRDNAKNSLSLQMNSLRAEDMAVYYCARMGTGYFFDYWGQGTLVTVSS VL: EIVLTQSPATLSLSPGERATLSCRASQSVSSYLAWYQQKPGQAPRLLIYDASNRATGIPARFSGSGSGTDFTLTISSLEPEDFAVYYCQQRSNWPLTFGPGTKVDIK
Result :: 9.82
